Assign SPOT peptide array binding signal intensity to each entry below.
assayed target: ScLsb4
protocol notes: SPOT peptide array binding signal intensity (averaged, normalized) (arbitrary units (background-subtracted, floor 0; scale differs between SH3 domains)); higher = stronger binding of the SH3 domain to the peptide
Form rule: numeric answer, no unit written next to it.

May I ask what SPOT peptide array binding signal intensity has been recorded for RRRRRPHRIERPLSN ?
7.5

May I ask what SPOT peptide array binding signal intensity has been recorded for NIKVLLNPKLGKPVK ?
3

May I ask what SPOT peptide array binding signal intensity has been recorded for TKRKRPARLIFYDSK ?
13

May I ask what SPOT peptide array binding signal intensity has been recorded for PSRRDSLSIPRAVDA ?
11.5
